Origin of measurements: BindingDB's records for doi:10.1039/c5md00579e

Test: Inhibition of MCT1 in human Raji cells assessed as inhibition of cell proliferation after 96 hrs by MTT assay
The compounds listed here are annotated with their EC50.
Answer in nM, number only, no unit symbol.

What EC50 value was documented for this compound, CC(C)Cc1nn(C)c(=O)c2c(SCCCO)n(Cc3cc(NCCCCCNC(=O)[C@@H](N)CCC(N)=O)nc4ccccc34)cc12 ?
0.8

What EC50 value was documented for this compound, CC(C)Cc1nn(C)c(=O)c2c(SCCCO)n(Cc3ccc(Cl)nc3)cc12 ?
690

What EC50 value was documented for this compound, CC(C)Cc1nn(C)c(=O)c2c(SCCCO)n(Cc3ccc(C#CCCCOc4ccc(C[C@H](N)C(=O)O)cc4)c4ccccc34)cc12 ?
0.8

What EC50 value was documented for this compound, CC(C)Cc1nn(C)c(=O)c2c(SCCCO)n(Cc3ccnc(NCCCCCNC(=O)[C@@H](N)CCC(N)=O)c3)cc12 ?
500

What EC50 value was documented for this compound, CC(C)Cc1nn(C)c(=O)c2c(SCCCO)n(Cc3cnc(NCCCCCNC(=O)[C@@H](N)CCC(N)=O)c4ccccc34)cc12 ?
0.16

What EC50 value was documented for this compound, CC(C)Cc1nn(C)c(=O)c2c(SCCCO)n(Cc3cc(NCCCCCN)nc4ccccc34)cc12 ?
24

* * *

The compounds listed here are annotated with their EC50.
Test: Inhibition of MCT1 in human Raji cells assessed as inhibition of cell proliferation after 96 hrs by MTT assay
Answer in nM, number only, no unit symbol.

Examples from the recorded data:
What EC50 value was documented for this compound, CC(C)Cc1nn(C)c(=O)c2c(SCCCO)n(Cc3ccc(Br)c4ccccc34)cc12 ?
11

What EC50 value was documented for this compound, CC(C)Cc1nn(C)c(=O)c2c(SCCCO)n(Cc3ccnc(Cl)c3)cc12 ?
1000

What EC50 value was documented for this compound, CC(C)Cc1nn(C)c(=O)c2c(SCCCO)n(Cc3cc(Cl)nc4ccccc34)cc12 ?
60

Further cases:
What EC50 value was documented for this compound, CC(C)Cc1nn(C)c(=O)c2c(SCCCO)n(Cc3ccc(NCCCCCNC(=O)[C@@H](N)CCC(N)=O)nc3)cc12 ?
100
